Molecular target: T1, human GLP-1R (human), P43220
T1 chain: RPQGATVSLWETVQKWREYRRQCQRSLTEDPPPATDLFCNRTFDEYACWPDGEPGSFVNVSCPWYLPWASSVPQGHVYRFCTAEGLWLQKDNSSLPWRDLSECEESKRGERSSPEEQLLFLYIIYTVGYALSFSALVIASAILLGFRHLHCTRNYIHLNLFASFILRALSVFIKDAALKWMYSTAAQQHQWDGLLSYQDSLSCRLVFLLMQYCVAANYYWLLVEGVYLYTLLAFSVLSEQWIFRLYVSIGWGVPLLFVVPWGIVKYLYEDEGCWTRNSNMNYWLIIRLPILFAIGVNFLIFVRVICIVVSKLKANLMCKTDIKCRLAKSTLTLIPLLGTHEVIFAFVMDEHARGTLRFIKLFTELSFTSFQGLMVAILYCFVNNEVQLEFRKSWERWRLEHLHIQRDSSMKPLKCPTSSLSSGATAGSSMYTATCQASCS
Non-standard residues stand in square brackets, D forms with d. Groups on a side chain read outwards from the residue. Primed or numbered codes have the meaning given here. No end group written: not given here. *: point of attachment. Stearoyl = CCCCCCCCCCCCCCCCCC(=O)*; dIva = CC[C@@](C)(N)C(=O)O; Aib = CC(C)(N)C(=O)O
test-readout: Agonist activity (EC50, M)

binder	Agonist activity (EC50, M)
Y[Aib]EGTFISDYSK([PEG(2)-Stearoyl])ALDRIHQQDFVNWLLAQRPSSGAPPPS (ends and bridges not checked) [Compound 176]	> 1e-06 M

Then there is this binder:
Indicate its recorded Agonist activity (EC50, M); the binder in question is Me-Y[Aib]EGTFISDYSI[dIva]LDRIAQQDFVNWLLAQRPSSGAPPPSR (not fully specified (residue 1, C-terminus); ends and bridges not checked) [Compound 131]
> 1e-06 M
